Entry source: ChEMBL document CHEMBL4699535

- experimental system: NAD(P)H dehydrogenase [quinone] 1 (Mus musculus)
- assay procedure: Induction of quinone reductase in mouse Hepa1c1c7 cells at 100 uM incubated for 24 hrs by MTT based assay
- Type: cell-based
- assay conditions: filed as activator
measure: fold change (FC)

GET /value?item= `C/C1=C\CC[C@@]2(C)O[C@@H]2C[C@H]2C(=O)C=C(C(C)C)[C@]2(O)CC1` &field=fold change (FC) returns 1.9

GET /value?item= `C/C1=C\CC[C@]2(C)O[C@H]2C[C@@H]2C(=O)C=C(C(C)C)[C@@]2(O)CC1` &field=fold change (FC) returns 1.5

GET /value?item= `C/C1=C\C[C@@]2(C)CC[C@@](O)(C(C)C)[C@@H]2C/C=C(\C)[C@@H](O)CC1` &field=fold change (FC) returns 1.5

GET /value?item= `C=C1CC[C@@H]2[C@@](C)(C/C=C(\C)CC[C@@H]1O)CC[C@@]2(O)C(C)C` &field=fold change (FC) returns 1.5

GET /value?item= `C/C1=C/C[C@@H]2[C@@](C)(C/C=C(\C)CC[C@@H]1O)CC[C@@]2(O)C(C)C` &field=fold change (FC) returns 1.5
